Test system: HL-60
Method description: NCI tumour cell line growth inhibition, 48 h
Calls of active or inactive are those of the source. No stated cut-off is given here; in the data, active = GI50 up to about 1.1 µM and inactive = higher.
Form entry, call: pick from 1 = active, -1 = inactive

- Molecule: "O=c1[nH]c2cc3[nH]c4ncccc4c(=O)c3cc2[nH]1"
  Label class: -1

What is the recorded call for this molecule in the test? `CCOC(=O)c1c(NC(=O)c2cccs2)sc2c1CCC2`
-1

Next record, please: CCC[S+]([O-])c1nc(COC(=O)NC)c(COC(=O)NC)n1C (stereo not given)
-1

Next record, please: `Cc1c(/C=N/NC(=O)c2ccccc2O)c(=O)n(-c2ccccc2)n1C`
-1

Next record, please: `CC(=O)Nc1ccccc1-c1nc2ccccc2nc1C`
-1

Next record, please: CCN1CCC(O)(c2ccc(Cl)cc2)C(C(=O)c2ccc(Cl)cc2)C1 (stereo not given)
-1
